Please go through the items and note down their pIC50.
Experiment: Inhibition of bovine liver beta-glucosidase using p-nitrophenyl-glycoside as substrate by spectrophotometric method
Set-up: species or system Bos taurus
Numbers only, as −log10 of the molar value.

# lookup: pIC50 of "CCCCCCCCNC(=S)N1[C@H](CO)[C@@H](O)[C@H](O)[C@H]1CO"
3.16

Param item = "CCCCCCCCNC(=S)N1[C@@H](CO)[C@H](O)[C@@H](O)[C@@H]1CO" ; retrieve measured pIC50.
3.75

Next up:
Bench note: what pIC50 did "CCCCCCCCCC/N=C1/SC[C@@H]2[C@@H](O)[C@H](O)[C@@H](CO)N12" show?
4.20

Measured values drawn from ChEMBL document CHEMBL3868599 for this set.
